Assay: Membrane permeability study (Caco-2)
Type: in vitro ADME
Conditions: human, pH 7.4; Caco-2, 10 μM, 90 min, apical to basolateral
Protocol: Caco-2 cells were purchased from the […] (Rockville, MD). The cell culture medium was modified Eagle's medium (MEM) containing 10% inactivated fetal bovine serum and 1% non-essential amino acids. The cells were incubated for 21-28 days after inoculation for transport experiments and the apparent permeability (Papp) of Lucifer Yellow was used to characterize and verify the compactness of the cell monolayer. […]
Lab note: anything with Papp A→B at 90 min, 10 µM at or over 9 ×10⁻⁶ cm/s counts as Y; the rest go in N.

Below are worked cases with known answers.
C=CCn1c(=O)c2cnc(Nc3ccc(N4CC5CC(C4)N5CCF)cc3)nc2n1-c1cccc(C(C)(C)O)n1 [Compound 48]	Y
C=CCn1c(=O)c2cnc(Nc3ccc(N4CCN(C)CC4)cc3)nc2n1-c1cccc(C(C)(C)O)n1 [AZD1775]	Y
C=CCn1c(=O)c2cnc(Nc3ccc(N4CC5CC(C4)N5C)cc3)nc2n1-c1cccc(C(C)(C)O)n1 [Compound 27]	N

Identify whether the reported Papp A→B at 90 min, 10 µM of the following compound is 9 ×10⁻⁶ cm/s or greater: C=CCn1c(=O)c2cnc(Nc3ccc(N4C[C@@H]5C[C@H]4CN5C)c(C)c3)nc2n1-c1cccc(C(C)(C)O)n1 [Compound 12] N

Given C=CCn1c(=O)c2cnc(Nc3ccc(N4CC5CC(C4)N5C(C)C)cc3)nc2n1-c1cccc(C(C)(C)O)n1 [Compound 42] , state whether its Papp A→B at 90 min, 10 µM is at least 9 ×10⁻⁶ cm/s. N
